The reported numbers originate from patent US11608332B2.

Assay: Pharmacokinetic (PK) analysis in rats
Type: in vivo, Sprague Dawley (SD) rats
Details: Sprague-Dawley, rat, po; SD rats, single intragastric administration, 5 mg/kg, plasma; read-out: Mean Residence Time MRT
Overview of reported MRT across a group of compounds:
# output: bare number, implied unit h

Solved entries (count: 2):
COCC(=O)N(C)Cc1cc2c(nc1C=O)N(C(=O)Nc1cc(N3CC[C@@H](OC)C3)c(C#N)cn1)CCC2 :: 2.8
CO[C@H]1CCN(Cc2cc3c(nc2C=O)N(C(=O)Nc2cc(N[C@@H]4CCOC4)c(C#N)cn2)CCC3)C1=O :: 3.3

What does the record list as MRT for COCCNc1cc(NC(=O)N2CCCc3cc(CN(C)C(=O)C4CCOC4)c(C=O)nc32)ncc1C#N (stereo not drawn) ? 3.2
